tested_on: T1, human PCSK9 (proprotein convertase subtilisin kexin type 9) (human, UniProt Q8NBP7 31-692)
T1 construct: Directly immobilized (SPR ProteOn), biotinylated (BLI), or in solution, depending on the assay; also called hPCSK9
measurement_protocol: BLI Octet Red, 37 C
Give Kd for every item shown.
Express it in nM; write the number only.

Measured Kd of 1459D05 (designed binder, also called ATI000891; ATI-891) MGVSDVPRDLEVVAATPTSLLISWPPPSHGYGYYRITYGETGGNSPVQEFTVPPGKGTATISGLKPGVDYTITVYAVEYPYKHSGYYHRPISINYRTEIDKPSQHHHHHH : 14.4

Measured Kd of 2382F05 (designed binder, Anti-PCSK9 Adnectin, His6-tagged) MGVSDVPRDLEVVAATPTSLLISWDAPAEAGKHYGYYRITYGETGGNSPVQEFTVPVSKGTATISGLKPGVDYTITVYAVEFDFPGAGYYHRPISINYRTEIDKPSQHHHHHH : 4.54
